PROTOCOL: pKa determination in DMF/water by titration with UV-visible spectra
Type: physicochemical
DETAILS: DMF/water (1/1 by volume) solution, dye 2×10^−5 mol/l
Use Y when the recorded pKa is no lower than 6; use N when it is lower.

Reference set (4 entries):
MOLECULE: N#CC1=NN(c2ccccc2)C(=O)C1/N=N/c1ccc(S(N)(=O)=O)cc1 [Dye D-6]
CLASS: N

MOLECULE: COc1ccc(/N=N/C2C(=O)N(c3ccc(S(N)(=O)=O)cc3)N=C2C#N)cc1 [Dye D-15]
CLASS: N

MOLECULE: COc1ccc(/N=N/C2C(=O)N(c3ccccc3)N=C2C#N)cc1 [Dye D-7]
CLASS: N

MOLECULE: CS(=O)(=O)c1ccc(/N=N/c2ccc(O)c3ccccc23)c(C#N)c1 [Dye D-25]
CLASS: Y

Turning now to a further molecule:
Request: Evaluate CC(=O)Nc1cc(/N=N/c2ccc(S(C)(=O)=O)cc2C#N)c2ccccc2c1O [Dye D-26] : pKa at minimum 6?
Response: Y

Entry source: patent US7056355B2
